Entry source: ChEMBL document CHEMBL1135704

test: Inhibitory activity against 5-lipoxygenase, by using soybean lipoxygenase spectrophotometric assay; design: concentration or dose not given beside the values; conditions: concentration not given here
Hi there, I'd appreciate the recorded inhibition for every entry that follows.
The response must be a number in % with no trailing unit.

The measured inhibition associated with "CC(=O)NCc1c(O)c(=O)cc(C)n1C" reads 18.5

For reference, reported inhibition for "CCCc1c(O)c(=O)cc(C)n1C" stands at 30

Lab note: "Cc1cc(=O)c(O)c(CNC(=O)C(C)C)n1C" gave inhibition of 21

GET /value?item= "CCCCCCCCn1ccc(=O)c(O)c1C" &field=inhibition returns 98.7

The reported value for "Cn1ccc(=O)c(O)c1" in terms of inhibition is 59.4

inhibition in this record for "CCCNC(=O)CCC(=O)NCc1c(O)c(=O)cc(C)n1C" : 2.1

// inhibition value for "CCCCc1c(O)c(=O)cc(C)n1C" : 29.6

Please fill in: inhibition reported for "CCCCCn1ccc(=O)c(O)c1C" = 90

Just so you know, measured inhibition for "CC(=O)NCCC(=O)NCc1c(O)c(=O)cc(C)n1C" came out at 3.8

The measured inhibition associated with "CCCCCCn1ccc(=O)c(O)c1C" reads 93.2

# inhibition (compound: "CCCCn1ccc(=O)c(O)c1C" ) is 80

For this compound ( "CCn1ccc(=O)c(O)c1C" ), measured inhibition is 58.4

# inhibition of "CCc1c(O)c(=O)ccn1C" = 48.5

// recorded inhibition for Cc1c(O)c(=O)ccn1C [DEFERIPRONE] : 39.4

Consider "COCc1c(O)c(=O)cc(C)n1C" . Its measured inhibition is 14.8

The compound identified as "CCC(=O)NCc1c(O)c(=O)cc(C)n1C" registered its inhibition at 13.5

###

assay: Partition coefficient (logP); type: physicochemical; conditions: octanol/water
Tag: MET if measured logP is not below -0.2, NOT MET if it is.

Item "CCc1c(O)c(=O)ccn1C" with logP of -0.2 or above?
NOT MET

Is the recorded value of logP equal to or greater than -0.2 for this compound? "Cn1ccc(=O)c(O)c1"
NOT MET

logP >= -0.2 for "CCC(=O)NCc1c(O)c(=O)cc(C)n1C" ?
NOT MET

hey, is logP for this one >= -0.2? "CCCc1c(O)c(=O)cc(C)n1C"
MET

Item "COCc1c(O)c(=O)cc(C)n1C" with logP of -0.2 or above?
NOT MET

Test whether the compound "CC(=O)NCCC(=O)NCc1c(O)c(=O)cc(C)n1C" records logP of -0.2 or higher.
NOT MET

Hello, I need to know if "CCCCc1c(O)c(=O)cc(C)n1C" has measured logP not below -0.2. Thanks!
MET

Please indicate if the recorded logP for "Cc1cc(=O)c(O)c(CNC(=O)C(C)C)n1C" meets or exceeds -0.2.
NOT MET

Quick check: does "CCCNC(=O)CCC(=O)NCc1c(O)c(=O)cc(C)n1C" have logP greater than or equal to -0.2?
NOT MET
